Below, each entry is listed with its recorded Percent Effect.
- testedOn: Protein translocase subunit SecA (Escherichia coli (strain K12))
- assayExplanation: Assay to Identify E. coli SecA ATPase Inhibitors
- Assay type: functional
- Design: scale not given: direction of the effect not stated beside the values
- appliedConditions: 30 µM
Results with a measured potency or affinity are listed apart.
# output: bare number, implied unit %

Reported Percent Effect ( CC(C)c1nc2n(n1)CC(NCc1nc(-c3cccnc3)no1)CC2 (stereo unspecified) ) = -3.79

Reported Percent Effect ( Cc1ccc(C#N)c(N2CCC(c3nccn3CCN(C)C)CC2)n1 ) = -4.49

Reported Percent Effect ( CCOc1cccc(C(C)NCc2ccc(OC)c(OC)c2OC)c1 (stereo unspecified) ) = -3

Reported Percent Effect ( CC(C(=O)NCc1ccc(-n2cncn2)nc1)n1ccnc1 (stereo unspecified) ) = -3.77

***
Reported Percent Effect ( Cc1cc(CN2CCN(C(c3ccccc3)c3ccccc3)CC2)no1 ) = -4.43

Reported Percent Effect ( CCS(=O)(=O)N1CCO[C@H]2[C@H](OCC3CCCC3)CC[C@@H]21 ) = -3.86
